Data credit: the supplement of paper PMC10567573

B1: MATN2 (parent)
chain: VNVPGSFVCQCYSGYALAEDGKRC

- Variants of: B1
- Experiment: protein stability index of a GFP-peptide fusion (GPS, HEK-293T) (PSI 1-6); higher = more stable;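 also: lentivirally expressed fusions sorted by FACS into six bins by GFP to DsRed ratio, PSI derived from sequencing read proportions per bin multiplied by bin number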
- Conditions: c terminus: a fixed tail appended
Entries and their protein stability index values follow.
Please respond with just the number, no unit label.

> print(dat)
    var  result.number
1  Y15W           1.65
2   S6H           2.27
3   G5C           2.68
4   V3T           2.39
5  G21F           1.58

Could you now consider this next variant?
Please indicate protein stability index recorded for R23D
2.78
